biological target: UniProt Q9H9B1; test: EHMT1 PEP; assay type: biochemical
Property Label: IC50

INSERT INTO assay_data (molecule, property_label, measured_value) VALUES
  ('CNC1=Nc2cc(C#CC(C)N3CCCC3)c(OC)cc2C12CCC2 (stereo not drawn) [Compound 84]', 'IC50', '< 0.1 µM');

Return reported IC50 values for all items listed beneath this line.
1. COc1cc2sc(N)nc2cc1OCCCN1CCCC1 [Compound 6]
2. CCNc1nc2cc(OC[C@H](O)CN3CCCC3)c(OC)cc2n1C [Compound 31]
3. COc1cc2c(cc1OCCCN1CCCC1)ncn2C(C)C [Compound 67]
4. CNc1nc2cc(OC[C@H](O)CN3CCCC3)c(OC)cc2n1C [Compound 26]
5. CNc1nc2cc(OCCCN3CCCC3)c(OC)cc2n1C(C)C [Compound 36]
6. CCN1CC[C@@H](COc2cc3nc(N)n(C4CCCC4)c3cc2OC)C1 [Compound 9]

OUTPUT:
1 to 10 µM
< 0.1 µM
> 10 µM
< 0.1 µM
< 0.1 µM
< 0.1 µM

Return reported IC50 values for all items listed beneath this line.
1. CNCCCOc1cc2c(cc1OC)C1(CCC1)C(N)=N2 [Compound 57]
2. CNC1=Nc2cc(C#C[C@@H](C)N3CCCC3)c(OC)cc2C12CCC2 [Compound 86]
3. NC1=Nc2cc(OCCCN3CCCC3)c(-c3cccnc3)cc2C12CCC2 [Compound 137]
4. COc1cc2c(cc1OCC(O)CN1CCCC1)N=C(N)C21CCC1 (stereo not drawn) [Compound 62]
5. COc1cc2c(cc1OCCCN1CCCC1)nc(N)n2CC(F)(F)F [Compound 11]
6. CNC1=Nc2cc(C#C[C@@H](C)N3CCCCC3)c(OC)cc2C12CCC2 [Compound 94]
7. COc1cc2c(cc1OCCCN1CC[C@H](O)C1)N=C(N)C21CCC1 [Compound 50]

OUTPUT:
["1 to 10 µM", "0.1 to 1 µM", "> 10 µM", "< 0.1 µM", "0.1 to 1 µM", "0.1 to 1 µM", "< 0.1 µM"]

Return reported IC50 values for all items listed beneath this line.
1. CNc1nc2cc(CNCCN3CCCC3)c(Cl)cc2n1C(C)C [Compound 138]
2. COc1cc2c(cc1OCCCN1CCCC1)nc(N)n2CC1CCOCC1 [Compound 18]

OUTPUT:
["0.1 to 1 µM", "0.1 to 1 µM"]

Return reported IC50 values for all items listed beneath this line.
1. CCNC1=Nc2cc(CNCCN3CCCC3)c(OC)cc2C12CCC2 [Compound 71]
2. COc1cc2c(cc1OCCCN1CCCC1)N=C(N)C21CCOCC1 [Compound 5]
3. COc1cc2c(cc1OCCCN1CCC1)N=C(N)C21CCC1 [Compound 43]
4. COc1cc2c(cc1OCCCN)N=C(N)C21CCC1 [Compound 69]
5. CC(C)Oc1cc2c(cc1OCCCN1CCCC1)N=C(N)C21CCC1 [Compound 68]

OUTPUT:
["< 0.1 µM", "< 0.1 µM", "< 0.1 µM", "1 to 10 µM", "1 to 10 µM"]

---

Target: EHMT1 (Homo sapiens)
Sequence (Q9H9B1 1-1298): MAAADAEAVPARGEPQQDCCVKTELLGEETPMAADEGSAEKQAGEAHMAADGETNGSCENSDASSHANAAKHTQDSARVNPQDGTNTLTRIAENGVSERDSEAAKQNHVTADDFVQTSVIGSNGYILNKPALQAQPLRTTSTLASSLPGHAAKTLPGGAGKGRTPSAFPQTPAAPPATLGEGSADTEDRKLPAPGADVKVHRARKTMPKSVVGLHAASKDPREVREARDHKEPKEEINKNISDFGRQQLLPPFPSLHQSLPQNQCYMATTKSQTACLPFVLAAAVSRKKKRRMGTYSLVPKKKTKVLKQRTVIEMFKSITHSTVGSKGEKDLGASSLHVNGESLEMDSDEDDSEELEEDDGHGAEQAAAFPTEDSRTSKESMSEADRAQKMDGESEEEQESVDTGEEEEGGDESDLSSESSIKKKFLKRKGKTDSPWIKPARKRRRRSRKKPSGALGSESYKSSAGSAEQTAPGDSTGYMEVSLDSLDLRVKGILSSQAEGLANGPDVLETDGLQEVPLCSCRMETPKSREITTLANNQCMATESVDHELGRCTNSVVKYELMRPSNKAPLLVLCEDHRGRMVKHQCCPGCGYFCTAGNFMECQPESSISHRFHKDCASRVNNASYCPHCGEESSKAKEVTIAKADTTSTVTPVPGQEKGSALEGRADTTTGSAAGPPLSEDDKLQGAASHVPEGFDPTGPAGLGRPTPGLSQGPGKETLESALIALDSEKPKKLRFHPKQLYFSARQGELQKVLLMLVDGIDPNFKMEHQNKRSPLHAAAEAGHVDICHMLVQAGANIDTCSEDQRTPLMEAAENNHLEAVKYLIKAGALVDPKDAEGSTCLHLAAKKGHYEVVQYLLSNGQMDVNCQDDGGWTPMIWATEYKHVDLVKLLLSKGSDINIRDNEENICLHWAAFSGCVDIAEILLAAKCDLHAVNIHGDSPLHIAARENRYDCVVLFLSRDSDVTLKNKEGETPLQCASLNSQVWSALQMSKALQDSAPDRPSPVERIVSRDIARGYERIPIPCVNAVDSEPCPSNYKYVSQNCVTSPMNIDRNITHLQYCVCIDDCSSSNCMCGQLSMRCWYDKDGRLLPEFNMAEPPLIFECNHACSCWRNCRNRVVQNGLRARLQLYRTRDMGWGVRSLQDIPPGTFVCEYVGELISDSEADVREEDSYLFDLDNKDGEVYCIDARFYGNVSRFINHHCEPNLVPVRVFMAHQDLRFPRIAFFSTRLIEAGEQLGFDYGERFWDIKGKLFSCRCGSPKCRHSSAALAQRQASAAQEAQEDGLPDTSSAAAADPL
Assay: EHMT1 PEP
Format: biochemical
Please go through the items and note down their IC50.

Here's what some known entries look like.
INSERT INTO results (smiles_str, property_label, measured_value) VALUES
  ('COc1cc2c(cc1OCCCN1CCCC1)N=C(N)C21CCCCC1', 'IC50', '< 0.1 µM'),
  ('COc1cc2c(cc1OC[C@H](O)CN1CCCC1)nc(NC(C)C)n2C', 'IC50', '0.1 to 1 µM'),
  ('COc1cc2c(cc1OC[C@H](O)CN1CCCC1)nc(NC1CCCC1)n2C', 'IC50', '0.1 to 1 µM');

Return reported IC50 values for all items listed beneath this line.
1. CCn1c(NC)nc2cc(OCCCN3CCCC3)c(OC)cc21
2. CNc1nc2cc(CNCCN3CCCC3)c(C)cc2n1C(C)C
3. COc1cc2c(cc1OCCCN)N=C(N)C2(C)C

OUTPUT:
1: < 0.1 µM; 2: 0.1 to 1 µM; 3: 1 to 10 µM

Return reported IC50 values for all items listed beneath this line.
1. COc1cc2c(cc1OCCCN1CCCC1)nc(NC1CCCC1)n2C
2. COc1cc2c(cc1OCCCN1CCOCC1)N=C(N)C21CCC1
3. COc1cc2c(cc1OCCCN1CCCC1)nc(N)n2C
4. COc1cc2c(cc1OCCCN1CCCC1)nc(NC(C)C)n2C

OUTPUT:
["0.1 to 1 µM", "0.1 to 1 µM", "< 0.1 µM", "0.1 to 1 µM"]
